# subjectOfTest: EGFR [T790M/L858R] (Homo sapiens, UniProt P00533, L858R/T790M)
# Construct: EGFR [T790M/L858R] and EGFR [L858R], cytoplasmic domain (669-1210), GST-tagged, Carna; GST
# Sequence (P00533 669-1210 T790M/L858R): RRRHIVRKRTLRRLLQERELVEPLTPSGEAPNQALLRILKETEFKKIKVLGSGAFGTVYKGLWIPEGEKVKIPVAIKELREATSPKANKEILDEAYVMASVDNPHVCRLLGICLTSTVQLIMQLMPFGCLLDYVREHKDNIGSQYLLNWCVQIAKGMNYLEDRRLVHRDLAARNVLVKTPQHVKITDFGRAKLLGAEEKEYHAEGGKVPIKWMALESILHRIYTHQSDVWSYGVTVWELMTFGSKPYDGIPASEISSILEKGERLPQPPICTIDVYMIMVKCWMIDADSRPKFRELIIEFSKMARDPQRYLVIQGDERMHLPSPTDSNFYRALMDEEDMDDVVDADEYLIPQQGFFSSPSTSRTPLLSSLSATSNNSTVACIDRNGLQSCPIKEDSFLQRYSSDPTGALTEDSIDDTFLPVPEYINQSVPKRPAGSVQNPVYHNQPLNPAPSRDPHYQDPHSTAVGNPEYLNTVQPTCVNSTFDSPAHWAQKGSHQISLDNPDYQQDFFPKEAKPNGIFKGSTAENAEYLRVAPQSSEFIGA
# runDescription: Time-dependent kinase inhibition assay (Sox-based substrate)
# recordedConditions: read-out: KI, LRTM
property: Ki (µM)
Report the value in µM with no unit label.

Request: Which value of Ki has been reported for C=CC(=O)Nc1ccc(OC)c(Nc2cc(-c3[nH]c(CC)nc3-c3cccc(NC(=O)c4cccc5c4NC(=O)c4ccccc4N5)c3)ccn2)c1 in the records?
Result: 1.6
